# Target Or Test System: T1, antibody raised against ETAG
# T1 construct: Coated at 500 ng/well; also called E-tag antibody
# Test: phage ELISA
Reported Property: ETAG (OD)
Form entry: value (OD) — number only.

Solved cases (5 shown):
VWRDWVNGTVGLRNREKPGVAAAGAPVPYPDPLEPRP [DGI-2-20R-3-A5] ... 14.9
FRMWVQSCFWGQPGTGCGEGAAAGAPVPYPDPLEPRP [DGI-2-20R-3-D2] ... 14.3
DGI-2-40F-3-D1044 (peptide) peptide: DRVARLATPTAGTMAAGSLGYERTVGCDSQDWFRCVVEGLAAAGAPVPYPDPLEPRP ... 17.7
MSSTAWTDRILQRGIGLGPVAAAGAPVPYPDPLEPRP [DGI-2-20R-4-F1212] ... 9.8
RDTMCGSVSWGIPGCEYSGMAAAGAPVPYPDPLEPRP [DGI-2-20R-4-G122] ... 13.9

Task: Returns the measured ETAG (OD) for the input binder. Input: FGRDGDGIQRRQGGFSWVGDRAAAGAPVPYPDPLEPRP [DGI-2-20F-PP-E2]
Output: 11.6

Task: Next binder up: LWRRWSEGQLLGDGELRGDGAAAGAPVPYPDPLEPRP [DGI-2-20R-3-B52]
Output: 15.8

Task: What do we get for RTLFINGGCCGKGSGGGRPLAAAGAPVPYPDPLEPRP [DGI-2-20F-PP-G1] ?
Output: 21.8
